- SUBJECT OF TEST: hGIPR (Homo sapiens)
- Sequence (P48546 22-466): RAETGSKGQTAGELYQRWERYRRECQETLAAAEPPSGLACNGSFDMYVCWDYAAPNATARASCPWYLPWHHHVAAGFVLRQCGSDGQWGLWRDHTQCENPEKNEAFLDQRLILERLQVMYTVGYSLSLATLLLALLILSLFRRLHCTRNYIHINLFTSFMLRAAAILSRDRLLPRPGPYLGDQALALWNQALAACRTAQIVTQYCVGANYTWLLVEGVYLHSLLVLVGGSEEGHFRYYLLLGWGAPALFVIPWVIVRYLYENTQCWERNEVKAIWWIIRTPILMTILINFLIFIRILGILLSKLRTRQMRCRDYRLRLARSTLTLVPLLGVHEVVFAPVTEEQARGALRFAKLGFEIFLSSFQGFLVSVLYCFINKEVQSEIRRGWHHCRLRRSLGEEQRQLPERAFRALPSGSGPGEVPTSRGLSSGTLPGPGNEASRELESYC
- ASSAY COMMENT: Functional cAMP activation in the presence of 0.1% casein (no HSA);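 note: intracellular cAMP rise after 30 min at 37 °C read by HTRF against a standard curve, scaled between buffer alone (0%) and top control ligand concentration (100%), four-parameter fit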
- Format: cell-based
- STUDY CONDITIONS: in the presence of 0.1% casein (no HSA); geometric mean of relative EC50; read-out: Relative cAMP EC50, hGIPR
Starred links: 1 amine or outer side, 2 acyl side, 3 side chain; linkers in the order of their positions; H or OH if unused. Non-standard residues stand in square brackets, D forms with d. Groups on a side chain read outwards from the residue. No end group written: not given here. *: point of attachment. C18 diacid = O=C(O)CCCCCCCCCCCCCCCCC(=O)*; αMePhe(2-F) = C[C@](N)(Cc1ccccc1F)C(=O)O; γGlu = O=C(O)[C@H](CCC(=O)[*:2])N[*:1]; 4Pal = N[C@@H](Cc1ccncc1)C(=O)O; αMeL = CC(C)C[C@](C)(N)C(=O)O; αMeS = C[C@](N)(CO)C(=O)O; Orn = NCCC[C@H](N)C(=O)O; Aib = CC(C)(N)C(=O)O
RECORDED METRIC: pEC50
# pEC50 = -log10(concentration in molar units)

// worked examples, pEC50 included
SUBSTANCE	SUBJECT OF TEST	pEC50
H-Y[Aib]QGT[αMePhe(2-F)]TSD[4Pal]SI[αMeL]LDKK([γGlu-γGlu-C18 diacid])AQ[Aib][Orn]FIEYLTEGGPSSGEPPPSGSEE-NH2 [Example 638]	hGIPR (Homo sapiens)	10.45
Y[Aib]QGT[αMePhe(2-F)]TSD[4Pal][αMeS]ILLD[Orn]K([γGlu-γGlu-C18 diacid])AQ[Aib][Orn]FI[dE]YLIEGGPSSGEPPPSETE-NH2 [Example 555]	hGIPR (Homo sapiens)	10.22
H-Y[Aib]QGT[αMePhe(2-F)]TSD[4Pal]SI[αMeL]LDKK([γGlu-γGlu-C18 diacid])AQ[Aib]AFIEYLQEGGPSSGEPPPSGSEE-NH2 [Example 634]	hGIPR (Homo sapiens)	10.71
H-Y[Aib]QGT[αMePhe(2-F)]TSD[4Pal]SI[αMeL]LDKK([γGlu-γGlu-C18 diacid])AQ[Aib]AFIEYLSEGGPSSGEPPPSGSEE-NH2 [Example 632]	hGIPR (Homo sapiens)	10.17

Consider the record given below.
// sample H-Y[Aib]QGT[αMePhe(2-F)]TSD[4Pal]SI[αMeL]LDKK([γGlu-γGlu-C18 diacid])AQ[Aib][Orn]FIEYLSEGGPSSGEPPPEGSEE-NH2 [Example 651] , its pEC50 was 9.95

The values you see were collected from patent US20240270821A1.
